biological target: gEgI WT: HSV2 gEgI heterodimer comprising gE and gI wildtype ectodomains (HSV2, UniProt P89475 21-416; P06764 21-256); experiment: Biacore SPR, gEgI HEK BMP1063 at 10 µg/ml for 180 s over the mAb
Please go through the items and note down their RU Ag/250 RU mAbs.

Worked cases, answers included:
Noted for mAb clone 3, 21 (antibody, V domains shown) VH: EVQLQQSGPELVKPGASVKISCKTSGYTFTEYTMHWVKQSHGKSLEWIGGINPNNGGTSYNQKFKGKATLTVDKSSSTAYMELRSLTSEDSAVYYCARSLVEGDFAYWGQGTLVTVSA VL: DIVLTQSPASLAVSLGQRATISCRASQSVSTSSYSYMHWYQQKPGQPPKLLIKYASNLESGVPARFSGSGSGTDFTLNIHPVEEEDTATYYCQHSWEIPYTFGGGTKLEIK : its RU Ag/250 RU mAbs reads 5.89 RU Ag/250 RU mAbs

Form field RU Ag/250 RU mAbs, entry mAb clone 34 (antibody, V domains shown) VH: EVKLVESGGGLVQPGGSLKLSCATSGFTFSDYYMYWVRQTPEKRLEWVAYISNGGDSTYYPDTVKGRFTISRDNAKNTLYLQMSRLKSEDTAMYYCARSYYGNPFPYWGQGTLVTVSA VL: ENVLTQSPAIMSASPGEKVTMTCRASSSVSSSYLHWYQQKSGASPKLWIYSTSNLASGVPARFSGSGSGTSYSLTISSVEAEDAATYYCQQYSGYPLTFGAGTKLELK : 14.4 RU Ag/250 RU mAbs

Per the record, mAb clone 12, 13 (antibody, V domains shown, also called mAb 12; mAb12) VH: QVQLKESGPGLVAPSQSLSITCTVSGFSLTSYGVHWVRQPPGKGLEWLGVIWAGGSTNYNSALMSRLSISKDNSKSQVFLKMNSLQTDDTAMYFCARGGITSLHNYVMDYWGQGTSVTVSS VL: DIVLTQSPASLAVSLGQRATISCRASESVEYYGTSLMQWYQQKPGQPPKLLIYAASNVESGVPARFSGSGSGTHFSLNIHPVEEDDIAMYFCQQSRKVPSTFGGGTKLEIK has RU Ag/250 RU mAbs of 108 RU Ag/250 RU mAbs

# context switch: different binder, same RU Ag/250 RU mAbs
mAb clone 19 (antibody, V domains shown) VH: QVQLQQSGAELVRPGVSVKISCKGSGYTFTDYAMHWVKQSHAKSLEWIGVISTYYGDARYNQKFKGKATMTVDKSSSTAYMELARLTSEDSAIYYCARRGITVVADYAMDYWGQGTSVTVSS VL: QIVLTQSPAIMSASPGEKVTMSCSASSSVTYMHWYQQKSGTSPKRWIYDTSKLASGVPARFSGSGSGTSYSLTISSMEAEDAATYYCQQWSSNPPTFGGGTKLEIK yielded RU Ag/250 RU mAbs of 7.88 RU Ag/250 RU mAbs

Recorded values, source patent US20230331820A1.
